- tested-target: T1, TNC III1-5 (human, UniProt P24821 622-1074)
- T1 construct: The secreted protein in the assays lacks the leader; also called TG-TNC III1-5; engineered TNC III1-5
- T1 sequence: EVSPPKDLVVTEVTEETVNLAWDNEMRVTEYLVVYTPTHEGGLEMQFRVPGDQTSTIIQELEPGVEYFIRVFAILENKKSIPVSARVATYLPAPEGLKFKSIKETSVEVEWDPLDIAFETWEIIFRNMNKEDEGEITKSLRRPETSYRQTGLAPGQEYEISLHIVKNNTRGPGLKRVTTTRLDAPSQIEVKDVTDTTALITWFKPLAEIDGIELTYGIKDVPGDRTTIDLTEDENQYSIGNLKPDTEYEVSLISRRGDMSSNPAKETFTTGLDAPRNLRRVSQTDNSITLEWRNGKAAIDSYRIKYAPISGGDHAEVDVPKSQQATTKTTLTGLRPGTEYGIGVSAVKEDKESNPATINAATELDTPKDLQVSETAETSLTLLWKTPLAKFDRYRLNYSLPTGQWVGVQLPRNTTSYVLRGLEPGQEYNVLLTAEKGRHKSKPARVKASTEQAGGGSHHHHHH
- assay-summary: ELISA: cytokine coated (50 nM), 100 nM TNC III1-5 in solution, HRP-anti-His, A450; black bars without, white bars with 4 µM heparin
measurement-name: binding result

INSERT INTO assay_data (binder, endpoint_value) VALUES
  ('BMP-2 (ligand, UniProt P12643 283-396, looked up) QAKHKQRKRLKSSCKRHPLYVDFSDVGWNDWIVAPPGYHAFYCHGECPFPLADHLNSTNHAIVQTLVNSVNSKIPKACCVPTELSAISMLYLDENEKVVLKNYQDMVVEGCGCR', 'binds'),
  ('FGF-10 (ligand, UniProt O15520 38-208, looked up) QALGQDMVSPEATNSSSSSFSSPSSAGRHVRSYNHLQGDVRWRKLFSFTKYFLKIEKNGKVSGTKKENCPYSILEITSVEIGVVAVKAINSNYYLAMNKKGKLYGSKEFNNDCKLKERIEENGYNTYASFNWQHNGRQMYVALNGKGAPRRGQKTRRKNTSAHFLPMVVHS', 'binds'),
  ('FGF-6 (ligand, UniProt P10767 38-208, looked up) SPAGTRANNTLLDSRGWGTLLSRSRAGLAGEIAGVNWESGYLVGIKRQRRLYCNVGIGFHLQVLPDGRISGTHEENPYSLLEISTVERGVVSLFGVRSALFVAMNSKGRLYATPSFQEECKFRETLLPNNYNAYESDLYQGTYIALSKYGRVKRGSKVSPIMTVTHFLPRI', 'binds');

Values from patent US20140011978A1
